experiment: water solubility by ultraviolet (UV) spectrophotometry; assay type: physicochemical; details: at 25 °C, free pesticide, read-out: intrinsic solubility
parameter: solubility (µM)
Please give a number only; it is taken to be in µM.

Entry CNC(=O)Oc1cccc2c1OC(C)(C)O2 — recorded solubility = 600
